# Test system: 138582-337-R-J1-PDC complex spheroid viability
# assay notes: Anticancer human tumor 138582-337-R-J1-PDC patient-derived Merkel cell tumor cell line growth inhibition
# condition details: second compound 0.1 µM; first compound 0.3 µM; stronger effect = lower value
Param label: returns true (1) when viability, T/C < 70%, returns false (0) otherwise, including exact equality.

Would you please look over these solved cases?
>  <compound>
CCN(c1cc(-c2ccc(CN3CCOCC3)cc2)cc(C(=O)NCc2c(C)cc(C)[nH]c2=O)c1C)C1CCOCC1 + NC1CC1c1ccc(-c2cccc(O)c2)cc1

>  <class label>
true (1)

$$$$
>  <compound>
Nc1ncn(C2CC(O)C(CO)S2)c(=O)n1 (stereo not drawn) + NC1CCC(NC2CC2c2ccccc2)CC1

>  <class label>
false (0)

$$$$
>  <compound>
Nc1ccccc1NC(=O)c1ccc(CNC(=O)OCc2cccnc2)cc1 + NC1CC1c1ccc(-c2cccc(O)c2)cc1

>  <class label>
true (1)

$$$$
>  <compound>
Nc1ccccc1NC(=O)c1ccc(CNC(=O)OCc2cccnc2)cc1 + NC1CCC(NC2CC2c2ccccc2)CC1

>  <class label>
false (0)

$$$$
>  <compound>
O=C(C=Cc1cccc(S(=O)(=O)Nc2ccccc2)c1)NO + NC1CC1c1ccc(-c2cccc(O)c2)cc1

>  <class label>
true (1)

$$$$

Qu. Please indicate whether the reported viability, T/C of NS(=O)(=O)OCC1CC(n2ccc3c(NC4CCc5ccccc54)ncnc32)CC1O (stereo not drawn) + NC1CC1c1ccc(-c2cccc(O)c2)cc1 is strictly below 70%.
Ans. true (1)

Qu. Again, but for Nc1ccn(C2OC(CO)C(O)C2(F)F)c(=O)n1 (stereo not drawn) + NC1CCC(NC2CC2c2ccccc2)CC1
Ans. false (0)

* * *

# Tested on: 138582-337-R-J1-PDC complex spheroid viability
# assay notes: Anticancer human tumor 138582-337-R-J1-PDC cell line growth inhibition;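 also: spheroids exposed to agents for 7 days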
# condition details: curve of first compound; second compound 3.16 µM
property name: pIC50
Scale explanation: pIC50 corresponds to minus log10 of a concentration expressed in moles per litre.

The examples below pair each entry with its known result.
>  <compound>
O=C(C=Cc1cccc(S(=O)(=O)Nc2ccccc2)c1)NO + NC1CC1c1ccc(-c2cccc(O)c2)cc1

>  <pIC50>
7.19

$$$$
>  <compound>
CC(C)c1c(-c2ccccc2)nc2c(C#N)c[nH]n2c1=O + NC1CC1c1ccc(-c2cccc(O)c2)cc1

>  <pIC50>
5.60

$$$$
>  <compound>
CC1(C)CCC(CN2CCN(c3ccc(C(=O)NS(=O)(=O)c4ccc(NCC5CCOCC5)c([N+](=O)[O-])c4)c(Oc4cnc5[nH]ccc5c4)c3)CC2)=C(c2ccc(Cl)cc2)C1 + NC1CC1c1ccc(-c2cccc(O)c2)cc1

>  <pIC50>
5.49

$$$$
>  <compound>
COc1cc(C2c3cc4c(cc3C(OC3OC5COC(C)OC5C(O)C3O)C3COC(=O)C23)OCO4)cc(OC)c1O (centres undefined) + NC1CC1c1ccc(-c2cccc(O)c2)cc1

>  <pIC50>
6.12

$$$$
>  <compound>
CC1COCCN1c1cc(-c2ccnn2C)c2ccnc(-c3ccn[nH]3)c2n1 (centres undefined) + NC1CC1c1ccc(-c2cccc(O)c2)cc1

>  <pIC50>
7.36

$$$$

Now for another entry.
Qu. Give its pIC50 value. Item: CCc1c2c(nc3ccc(O)cc13)-c1cc3c(c(=O)n1C2)COC(=O)[C@]3(O)CC + NC1CCC(NC2CC2c2ccccc2)CC1
Ans. 7.92

* * *

# System: 138582-337-R-J1-PDC complex spheroid viability
# assay notes: Anticancer human tumor 138582-337-R-J1-PDC cell line growth inhibition;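 also: spheroids exposed to agents for 7 days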
# condition details: curve of first compound; second compound 10 µM
property name: pIC50
Would you please state pIC50, meaning minus log10 of the concentration in mol/L, as a bare number?

>  <compound>
O=C(C=Cc1cccc(S(=O)(=O)Nc2ccccc2)c1)NO + NC1CCC(NC2CC2c2ccccc2)CC1

>  <tgt>
138582-337-R-J1-PDC complex spheroid viability

>  <pIC50>
6.39

$$$$
>  <compound>
COc1cc(C2c3cc4c(cc3C(OC3OC5COC(C)OC5C(O)C3O)C3COC(=O)C23)OCO4)cc(OC)c1O (stereo not drawn) + NC1CC1c1ccc(-c2cccc(O)c2)cc1

>  <tgt>
138582-337-R-J1-PDC complex spheroid viability

>  <pIC50>
6.58

$$$$
>  <compound>
O=C(C=Cn1cnc(-c2cc(C(F)(F)F)cc(C(F)(F)F)c2)n1)NNc1cnccn1 + NC1CCC(NC2CC2c2ccccc2)CC1

>  <tgt>
138582-337-R-J1-PDC complex spheroid viability

>  <pIC50>
8.25

$$$$
>  <compound>
CC1COCCN1c1cc(C2(S(C)(=N)=O)CC2)nc(-c2ccnc3[nH]ccc23)n1 (stereo not drawn) + NC1CC1c1ccc(-c2cccc(O)c2)cc1

>  <tgt>
138582-337-R-J1-PDC complex spheroid viability

>  <pIC50>
5.37

$$$$
>  <compound>
CC1(C)CCC(CN2CCN(c3ccc(C(=O)NS(=O)(=O)c4ccc(NCC5CCOCC5)c([N+](=O)[O-])c4)c(Oc4cnc5[nH]ccc5c4)c3)CC2)=C(c2ccc(Cl)cc2)C1 + NC1CC1c1ccc(-c2cccc(O)c2)cc1

>  <tgt>
138582-337-R-J1-PDC complex spheroid viability

>  <pIC50>
5.45

$$$$

Qu. Can you look up the measured pIC50 of COc1cc(Nc2ncc3c(n2)-c2ccc(Cl)cc2C(c2c(F)cccc2OC)=NC3)ccc1C(=O)O + NC1CC1c1ccc(-c2cccc(O)c2)cc1 for me?
Ans. 6.33

Qu. Repeat for the following compound: COc1ccc([C@@H](O)c2cc(-c3ncnc4cc(N5CCOCC5)ccc34)c(F)cc2Cl)nn1 + NC1CC1c1ccc(-c2cccc(O)c2)cc1
Ans. 5.60

* * *

# Test system: 138582-337-R-J1-PDC complex spheroid viability
# assay notes: Anticancer human tumor 138582-337-R-J1-PDC cell line growth inhibition;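 also: spheroids exposed to agents for 7 days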
# condition details: curve of compound
property name: IC50

>  <compound>
Nc1ncn(C2CC(O)C(CO)O2)c(=O)n1 (stereo not drawn)

>  <tgt>
138582-337-R-J1-PDC complex spheroid viability

>  <assay value>
> 1000 nM

$$$$
>  <compound>
COc1cc(Nc2ncc3c(n2)-c2ccc(Cl)cc2C(c2c(F)cccc2OC)=NC3)ccc1C(=O)O

>  <tgt>
138582-337-R-J1-PDC complex spheroid viability

>  <assay value>
> 1000 nM

$$$$
>  <compound>
Cn1ncnc1C1c2n[nH]c(=O)c3cc(F)cc(c23)NC1c1ccc(F)cc1 (stereo not drawn)

>  <tgt>
138582-337-R-J1-PDC complex spheroid viability

>  <assay value>
> 100 nM

$$$$
>  <compound>
CC[C@@]1(O)C(=O)OCc2c1cc1n(c2=O)Cc2cc3c(CN(C)C)c(O)ccc3nc2-1

>  <tgt>
138582-337-R-J1-PDC complex spheroid viability

>  <assay value>
> 100 nM

$$$$

Qu. So what's the measured IC50 for this one? `O=C(c1cc(Cc2n[nH]c(=O)c3ccccc23)ccc1F)N1CCN(C(=O)C2CC2)CC1`
Ans. > 10000 nM

Qu. Try the compound Nc1ccn(C2OC(CO)C(O)C2(F)F)c(=O)n1 (stereo not drawn)
Ans. > 300 nM

Qu. Then Nc1ncn(C2CC(O)C(CO)S2)c(=O)n1 (stereo not drawn) ?
Ans. > 300 nM

Qu. Lookup `CCN(c1cc(-c2ccc(CN3CCOCC3)cc2)cc(C(=O)NCc2c(C)cc(C)[nH]c2=O)c1C)C1CCOCC1`
Ans. > 3000 nM

* * *

# Tested on: 138582-337-R-J1-PDC complex spheroid viability
# assay notes: Anticancer human tumor 138582-337-R-J1-PDC cell line growth inhibition;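 also: spheroids exposed to agents for 7 days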;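 as to viability, T/C: 100% = DMSO vehicle control viability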
# condition details: second compound 1 µM; first compound 0.316 µM; stronger effect = lower value
// reported viability, T/C for each item listed
Just the number in %, nothing appended.

Use these answered entries as a reference point.
>  <compound>
CC1COCCN1c1cc(-c2ccnn2C)c2ccnc(-c3ccn[nH]3)c2n1 (centres undefined) + NC1CC1c1ccc(-c2cccc(O)c2)cc1

>  <viability, T/C (%)>
30.1

$$$$
>  <compound>
O=C(c1cc(Cc2n[nH]c(=O)c3ccccc23)ccc1F)N1CCN(C(=O)C2CC2)CC1 + NC1CCC(NC2CC2c2ccccc2)CC1

>  <viability, T/C (%)>
92.5

$$$$

Qu. Entry under review: O=C(c1cc(Cc2n[nH]c(=O)c3ccccc23)ccc1F)N1CCN(C(=O)C2CC2)CC1 + NC1CC1c1ccc(-c2cccc(O)c2)cc1 . Reported viability, T/C?
Ans. 70.9

Qu. What do we get for COc1ccc([C@@H](O)c2cc(-c3ncnc4cc(N5CCOCC5)ccc34)c(F)cc2Cl)nn1 + NC1CCC(NC2CC2c2ccccc2)CC1 ?
Ans. 71.7

Hello, the source for this data is PubChem BioAssay AID1918931, in case you need it.
